tested on: IL-1β, human peripheral blood mononuclear cells (PBMC); assay: PBMC cell assay: IL-1β assay with human PBMC or enriched adherent mononuclear cells, LPS-stimulated; format: cell-based; conditions: Homo sapiens, PBMC, * = values obtained upon reassay
// classify: if (IC50 < 2 µM) fulfilled else not fulfilled

As a guide, the following entries are already answered.
O=C[C@H](CC(=O)O)NC(=O)[C@@H]1CCCN2C(=O)CC[C@H](NC(=O)c3ccc(OC(=O)c4ccccc4)cc3)C(=O)N12 :: not fulfilled
O=C[C@H](CC(=O)O)NC(=O)[C@@H]1CCCN2C(=O)CC[C@H](NC(=O)c3ccc4cc(O)ccc4c3)C(=O)N12 :: fulfilled
O=C[C@H](CC(=O)O)NC(=O)[C@@H]1CCCN2C(=O)CC[C@H](NC(=O)c3cc4ccccc4o3)C(=O)N12 :: fulfilled

(Q) Is 2 µM strictly greater than the compound's reported IC50? compound: O=C1C[C@H](NC(=O)[C@@H]2CCCN3C(=O)CC[C@H](NC(=O)C(=O)c4ccccc4)C(=O)N23)C(OCc2ccccc2)O1 (stereo partly drawn)
(A) fulfilled

(Q) Is 2 µM strictly greater than the compound's reported IC50? compound: Cc1nc(C)c(C(=O)N[C@H]2CCC(=O)N3CCC[C@@H](C(=O)N[C@H](C=O)CC(=O)O)N3C2=O)s1
(A) not fulfilled

(Q) Is 2 µM strictly greater than the compound's reported IC50? compound: O=C[C@H](CC(=O)O)NC(=O)[C@@H]1CCCN2C(=O)CC[C@H](NC(=O)c3ccccc3Cl)C(=O)N12
(A) fulfilled

---

test system: IL-1β, human whole blood; assay: Whole blood assay for IL-1β production; format: cell-based; conditions: Homo sapiens, * = values obtained upon reassay; read-out: Whole human blood IC50
endpoint name: pIC50
Just the number, please; pIC50 means minus log10 of the concentration in mol/L.

Worked examples, 3 compounds total:
O=C(O)C[C@H](NC(=O)[C@@H]1CCCN2C(=O)CC[C@H](NC(=O)CCc3ccccc3)C(=O)N12)C(=O)CSCc1ccccc1Cl [Compound 125b] :: 5.35
O=C[C@H](CC(=O)O)NC(=O)[C@@H]1CCCN2C(=O)CC[C@H](NC(=O)c3cc4ccsc4s3)C(=O)N12 [Compound 442] :: 5.70
O=C1C[C@H](NC(=O)[C@@H]2CCCN3C(=O)CC[C@H](NC(=O)c4ccccc4)C(=O)N23)C(OCc2ccccc2)O1 (stereo partly drawn) [Compound 213e] :: 6.22

(Q) Supply recorded pIC50 for CC(=O)Nc1ccc(C(=O)N[C@H]2CN(C(C)=O)c3ccccc3N(CC(=O)N[C@H](C=O)CC(=O)O)C2=O)cc1 [Compound 627] here.
(A) 5.10

---

test system: IL-1β, human peripheral blood mononuclear cells (PBMC); assay: PBMC cell assay: IL-1β assay with human PBMC or enriched adherent mononuclear cells, LPS-stimulated; type: cell-based; conditions: Homo sapiens, PBMC, * = values obtained upon reassay
endpoint name: IC50

Cc1ccccc1C(=O)N[C@H]1CCC(=O)N2CCC[C@@H](C(=O)N[C@H](C=O)CC(=O)O)N2C1=O [Compound 404] :: 1650 nM

(Q) Supply recorded IC50 for Cc1cc(C(=O)N[C@H]2CCC(=O)N3CCC[C@@H](C(=O)N[C@H](C=O)CC(=O)O)N3C2=O)no1 [Compound 424] here.
(A) 2500 nM

(Q) Supply recorded IC50 for Cn1c(C(=O)N[C@H]2CCC(=O)N3CCC[C@@H](C(=O)N[C@H](C=O)CC(=O)O)N3C2=O)cc2ccccc21 [Compound 433] here.
(A) 1000 nM

(Q) Supply recorded IC50 for O=C[C@H](CC(=O)O)NC(=O)CN1C(=O)[C@@H](NC(=O)c2ccccc2)CN(C(=O)Cc2ccncc2)c2ccccc21 [Compound 605s] here.
(A) 6000 nM

(Q) Supply recorded IC50 for O=C(O)CC(NC(=O)[C@@H]1CCCN2C(=O)CC[C@H](NC(=O)c3ccccc3)C(=O)N12)C(=O)COCc1ccccc1Cl (some centres unmarked) [Compound 227e] here.
(A) 234 nM

(Q) Supply recorded IC50 for CC(C)CC(=O)Nc1ccc(C(=O)N[C@H]2CCC(=O)N3CCC[C@@H](C(=O)N[C@H](C=O)CC(=O)O)N3C2=O)cc1 [Compound 487] here.
(A) 650 nM

(Q) Supply recorded IC50 for O=C[C@H](CC(=O)O)NC(=O)[C@@H]1CCCN2C(=O)CC[C@H](NC(=O)c3ccc(NC(=O)c4ccccc4)cc3)C(=O)N12 [Compound 483] here.
(A) 900 nM

(Q) Supply recorded IC50 for Cc1cc2c(cc1C(=O)N[C@H]1CCC(=O)N3CCC[C@@H](C(=O)N[C@H](C=O)CC(=O)O)N3C1=O)OCO2 [Compound 473] here.
(A) 1000 nM

(Q) Supply recorded IC50 for CC(C)OC1OC(=O)C[C@@H]1NC(=O)[C@@H]1CCCN2C(=O)CC[C@H](NC(=O)c3ccccc3)C(=O)N12 (some centres unmarked) [Compound 2100a] here.
(A) 1100 nM

---

system: IL-1β, human peripheral blood mononuclear cells (PBMC); experiment: PBMC cell assay: IL-1β assay with human PBMC or enriched adherent mononuclear cells, LPS-stimulated; format: cell-based; conditions: Homo sapiens, PBMC, Table 17
// classify: if (IC50 < 2 µM) yes else no

CC(=O)N1C[C@H](NC(=O)c2cc(Cl)c(O)c(Cl)c2)C(=O)N(CC(=O)N[C@H](C=O)CC(=O)O)c2ccccc21 :: no
O=C(O)C[C@H](NC(=O)[C@@H]1CCCN2C(=O)CC[C@H](NC(=O)c3ccccc3)C(=O)N12)C(=O)Cn1cnccc1=O [Compound 510d] :: no
O=C[C@H](CC(=O)O)NC(=O)[C@@H]1CCCN2C(=O)CCN(NS(=O)(=O)c3ccc4ccccc4c3)C(=O)N12 [Compound 265a] :: no

(Q) Is 2 µM strictly greater than the compound's reported IC50? compound: O=C[C@H](CC(=O)O)NC(=O)CN1C(=O)[C@@H](NC(=O)c2cc(Cl)c(O)c(Cl)c2)CN(C(=O)CO)c2ccccc21
(A) yes

(Q) Is 2 µM strictly greater than the compound's reported IC50? compound: COc1ccccc1C(=O)C(=O)NN1CCC(=O)N2CCC[C@@H](C(=O)N[C@H](C=O)CC(=O)O)N2C1=O
(A) no

(Q) Is 2 µM strictly greater than the compound's reported IC50? compound: COc1cccc(OC)c1C(=O)C(=O)N[C@H]1CN(C(=O)CO)c2ccccc2N(CC(=O)N[C@H](C=O)CC(=O)O)C1=O
(A) no

(Q) Is 2 µM strictly greater than the compound's reported IC50? compound: CNCC(=O)N1C[C@H](NC(=O)c2cccc3ccccc23)C(=O)N(CC(=O)N[C@H](C=O)CC(=O)O)c2ccccc21
(A) no

(Q) Is 2 µM strictly greater than the compound's reported IC50? compound: COc1ccc(C(=O)NN2CCC(=O)N3CCC[C@@H](C(=O)N[C@H](C=O)CC(=O)O)N3C2=O)cc1
(A) no

---

Catalogue of molecules with associated pKi
Target: ICE (Homo sapiens, UniProt P29466)
Sequence (P29466 120-297 limits assumed): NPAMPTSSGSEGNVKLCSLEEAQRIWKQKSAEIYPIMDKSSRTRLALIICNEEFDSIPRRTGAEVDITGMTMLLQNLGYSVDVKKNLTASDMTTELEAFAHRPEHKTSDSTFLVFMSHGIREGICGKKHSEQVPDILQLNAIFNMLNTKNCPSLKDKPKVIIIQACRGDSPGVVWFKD
Sequence (P29466 317-404 limits assumed): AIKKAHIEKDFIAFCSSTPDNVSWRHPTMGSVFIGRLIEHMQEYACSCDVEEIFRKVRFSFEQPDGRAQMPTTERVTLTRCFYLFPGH
Test: Enzyme assay with UV-visible substrate (visible ICE assay, Succinyl-Tyr-Val-Ala-Asp-pNitroanilide)
Assay type: biochemical
Details: Table 5
Where a name gives a salt, the structure may show the parent alone.
Just the number, please; pKi means minus log10 of the concentration in mol/L.

Worked examples, 3 molecules total:
CC(=O)N1C[C@H](NC(=O)c2ccccc2)C(=O)N(CC(=O)N[C@@H](CC(=O)O)C(=O)c2nc3cc(Cl)cc(Cl)c3o2)c2ccccc21 [Compound 609b] :: 7.57
O=C[C@H](CC(=O)O)NC(=O)[C@@H]1CCCN2C(=O)CC[C@H](NC(=O)c3ccc(O)c(CN4CCOCC4)c3)C(=O)N12 :: 7.22
Nc1ccc(C(=O)N[C@H]2CCC(=O)N3CCC[C@@H](C(=O)N[C@H](C=O)CC(=O)O)N3C2=O)cc1 :: 8.10

(Q) Supply recorded pKi for CC(C)CC(=O)Nc1ccc(C(=O)N[C@H]2CCC(=O)N3CCC[C@@H](C(=O)N[C@H](C=O)CC(=O)O)N3C2=O)cc1 here.
(A) 8.62

(Q) Supply recorded pKi for O=C[C@H](CC(=O)O)NC(=O)[C@@H]1CCCN2C(=O)CC[C@H](NC(=O)c3ccc(NC(=O)c4ccccc4)cc3)C(=O)N12 here.
(A) 8.77

(Q) Supply recorded pKi for CC(=O)N1C[C@H](NC(=O)c2nccc3ccccc23)C(=O)N(CC(=O)N[C@H](C=O)CC(=O)O)c2ccccc21 here.
(A) 7.46

(Q) Supply recorded pKi for O=CC(CC(=O)O)NC(=O)CN1C(=O)[C@@H](NCc2ccccc2)CN(C(=O)CCc2ccccc2)c2ccccc21 (stereo partly shown) [Compound 605v, trifluoroacetic acid salt] here.
(A) 5.96

Reference source for all entries: patent US20120165319A1
